Target: CCR4 (Homo sapiens, UniProt P51679)
Construct: host or cells: CHO-K1
Sequence (P51679 1-360): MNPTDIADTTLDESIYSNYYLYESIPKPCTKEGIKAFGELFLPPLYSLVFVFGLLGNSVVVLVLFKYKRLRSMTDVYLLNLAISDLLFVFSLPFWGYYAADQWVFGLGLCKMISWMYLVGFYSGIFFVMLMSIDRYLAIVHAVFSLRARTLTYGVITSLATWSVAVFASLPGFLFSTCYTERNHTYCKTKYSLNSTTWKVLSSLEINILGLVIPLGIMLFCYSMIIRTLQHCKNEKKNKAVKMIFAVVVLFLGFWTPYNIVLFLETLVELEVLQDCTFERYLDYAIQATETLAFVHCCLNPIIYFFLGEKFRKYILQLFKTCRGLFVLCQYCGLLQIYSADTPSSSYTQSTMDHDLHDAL
Assay: PathHunter eXpress CCR4 CHO-K1 β-Arrestin GPCR Assay, agonist format
Type: cell-based
Settings: 0.51 nM
ASSAY ENDPOINT: Raw Data

SEQUENCE ENTRY: ACRAVHSLRCLTTCA [24-17-00-N001, bicyclic peptide ligand, TATA scaffold, from CCR4 cell-based selection]
ASSAY ENDPOINT: Raw Data
RESULT: 27025
//
SEQUENCE ENTRY: ACQTLCNTAEDIRCA [24-16-00-N001, bicyclic peptide ligand, TBMB scaffold, from CCR4 cell-based selection]
ASSAY ENDPOINT: Raw Data
RESULT: 25030
//
SEQUENCE ENTRY: ACQLTCLPPPRQPGCA [24-15-00-N001, bicyclic peptide ligand, TATA scaffold, from CCR4 cell-based selection]
ASSAY ENDPOINT: Raw Data
RESULT: 31189
//
SEQUENCE ENTRY: ACQLTCLTPARQPGCA [24-14-00-N001, bicyclic peptide ligand, TATA scaffold, from CCR4 cell-based selection]
ASSAY ENDPOINT: Raw Data
RESULT: 32968
//
SEQUENCE ENTRY: ACLSCARHGNQCA [24-12-00-N001, bicyclic peptide ligand, TATA scaffold, from CCR4 cell-based selection]
ASSAY ENDPOINT: Raw Data
RESULT: 34202
//
SEQUENCE ENTRY: ACLNGCRNTNSQCA [24-11-00-N001, bicyclic peptide ligand, TATA scaffold, from CCR4 cell-based selection]
ASSAY ENDPOINT: Raw Data
RESULT: 27976
//
SEQUENCE ENTRY: ACPLMSSVNCTAGCA [24-13-00-N001, bicyclic peptide ligand, TBMB scaffold, from CCR4 cell-based selection]
ASSAY ENDPOINT: Raw Data
RESULT: 31217

---

Target: CCR4 (Homo sapiens, UniProt P51679)
Construct: host or cells: CHO-K1
Sequence (P51679 1-360): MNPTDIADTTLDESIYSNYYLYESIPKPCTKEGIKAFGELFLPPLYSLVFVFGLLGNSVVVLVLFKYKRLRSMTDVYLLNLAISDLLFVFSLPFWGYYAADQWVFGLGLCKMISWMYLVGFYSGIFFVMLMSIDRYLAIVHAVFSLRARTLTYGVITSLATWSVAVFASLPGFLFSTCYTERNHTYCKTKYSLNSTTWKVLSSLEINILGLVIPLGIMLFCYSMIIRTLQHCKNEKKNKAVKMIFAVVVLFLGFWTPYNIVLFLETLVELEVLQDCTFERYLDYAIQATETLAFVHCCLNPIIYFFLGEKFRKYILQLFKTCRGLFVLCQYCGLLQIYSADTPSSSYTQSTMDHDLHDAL
Test: PathHunter eXpress CCR4 CHO-K1 β-Arrestin GPCR Assay, antagonist format with CCL22
Format: cell-based
Settings: 1 nM CCL22, 5.6 uM
Procedure: The aim of the present experiment was to analyze if if these peptides are functional using a Discoverx Assay, the Beta-Arrestin recruitment assay, to identify agonism or antagonism in the selected peptides. Standard protocols used: • PathHunter® eXpress CCR4 CHO-K1 β-Arrestin GPCR Assay. 100 dp (1×96-well) The experiment was carried using the manufacturer instructions. We therefore used the assay in an antagonist format, using 10 nM CCL22. […]
ASSAY ENDPOINT: Raw Data

SEQUENCE ENTRY: ACPLMSSVNCTAGCA [24-13-00-N001, bicyclic peptide ligand, TBMB scaffold, from CCR4 cell-based selection]
SYSTEM NAME: CCR4 (Homo sapiens, UniProt P51679)
RESULT: 200574
--
SEQUENCE ENTRY: ACQLTCLTPARQPGCA [24-14-00-N001, bicyclic peptide ligand, TATA scaffold, from CCR4 cell-based selection]
SYSTEM NAME: CCR4 (Homo sapiens, UniProt P51679)
RESULT: 171795
--
SEQUENCE ENTRY: ACQTLCNTAEDIRCA [24-16-00-N001, bicyclic peptide ligand, TBMB scaffold, from CCR4 cell-based selection]
SYSTEM NAME: CCR4 (Homo sapiens, UniProt P51679)
RESULT: 186217

I. ACLSCARHGNQCA [24-12-00-N001, bicyclic peptide ligand, TATA scaffold, from CCR4 cell-based selection]
II. ACLNGCRNTNSQCA [24-11-00-N001, bicyclic peptide ligand, TATA scaffold, from CCR4 cell-based selection]
Name the one with the greater Raw Data value, either I or II as given. Pick one; state its label.
I
(I: 225342, II: 110179)

---

Biological target: CCR4 (Homo sapiens, UniProt P51679)
Construct: host or cells: CHO-K1
Sequence (P51679 1-360): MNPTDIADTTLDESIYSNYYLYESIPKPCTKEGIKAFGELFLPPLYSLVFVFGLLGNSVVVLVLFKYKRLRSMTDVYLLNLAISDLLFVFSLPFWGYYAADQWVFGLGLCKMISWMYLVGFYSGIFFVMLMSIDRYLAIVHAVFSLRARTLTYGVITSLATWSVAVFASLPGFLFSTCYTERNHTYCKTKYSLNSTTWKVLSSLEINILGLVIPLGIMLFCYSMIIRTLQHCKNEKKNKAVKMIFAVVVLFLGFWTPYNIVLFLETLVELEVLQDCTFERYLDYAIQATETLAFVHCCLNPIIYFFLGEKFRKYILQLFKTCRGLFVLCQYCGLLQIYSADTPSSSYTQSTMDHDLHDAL
Assay: PathHunter eXpress CCR4 CHO-K1 β-Arrestin GPCR Assay, agonist format
Type: cell-based
Settings: 0.02 nM
ASSAY ENDPOINT: Raw Data

SEQUENCE ENTRY: ACQLTCLTPARQPGCA [24-14-00-N001, bicyclic peptide ligand, TATA scaffold, from CCR4 cell-based selection]
Raw Data: 25603

SEQUENCE ENTRY: ACQLTCLPPPRQPGCA [24-15-00-N001, bicyclic peptide ligand, TATA scaffold, from CCR4 cell-based selection]
Raw Data: 27298

SEQUENCE ENTRY: ACLSCARHGNQCA [24-12-00-N001, bicyclic peptide ligand, TATA scaffold, from CCR4 cell-based selection]
Raw Data: 30201

SEQUENCE ENTRY: ACQTLCNTAEDIRCA [24-16-00-N001, bicyclic peptide ligand, TBMB scaffold, from CCR4 cell-based selection]
Raw Data: 23757

SEQUENCE ENTRY: ACPLMSSVNCTAGCA [24-13-00-N001, bicyclic peptide ligand, TBMB scaffold, from CCR4 cell-based selection]
Raw Data: 30705

SEQUENCE ENTRY: ACLNGCRNTNSQCA [24-11-00-N001, bicyclic peptide ligand, TATA scaffold, from CCR4 cell-based selection]
Raw Data: 24123

SEQUENCE ENTRY: ACRAVHSLRCLTTCA [24-17-00-N001, bicyclic peptide ligand, TATA scaffold, from CCR4 cell-based selection]
Raw Data: 26107

---

Target: CCR4 (Homo sapiens, UniProt P51679)
Construct: host or cells: CHO-K1
Sequence (P51679 1-360): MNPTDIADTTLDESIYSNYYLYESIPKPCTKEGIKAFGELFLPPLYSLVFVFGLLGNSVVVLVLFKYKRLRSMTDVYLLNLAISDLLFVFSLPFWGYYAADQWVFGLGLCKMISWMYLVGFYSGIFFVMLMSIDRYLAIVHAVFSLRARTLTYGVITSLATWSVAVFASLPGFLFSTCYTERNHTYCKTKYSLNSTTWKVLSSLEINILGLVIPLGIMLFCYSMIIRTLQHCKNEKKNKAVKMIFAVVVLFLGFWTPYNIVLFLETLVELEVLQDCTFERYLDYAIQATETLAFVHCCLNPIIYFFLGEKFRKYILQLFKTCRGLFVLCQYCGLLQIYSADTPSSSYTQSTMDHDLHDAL
Test: PathHunter eXpress CCR4 CHO-K1 β-Arrestin GPCR Assay, antagonist format with CCL22
Type: cell-based
Conditions: 1 nM CCL22, 1.9 uM
ASSAY ENDPOINT: Raw Data

Worked cases, Raw Data given:
SEQUENCE ENTRY: ACQLTCLTPARQPGCA [24-14-00-N001, bicyclic peptide ligand, TATA scaffold, from CCR4 cell-based selection]
Raw Data: 198268
//
SEQUENCE ENTRY: ACQTLCNTAEDIRCA [24-16-00-N001, bicyclic peptide ligand, TBMB scaffold, from CCR4 cell-based selection]
Raw Data: 213016
//
SEQUENCE ENTRY: ACLSCARHGNQCA [24-12-00-N001, bicyclic peptide ligand, TATA scaffold, from CCR4 cell-based selection]
Raw Data: 184486
//
SEQUENCE ENTRY: ACPLMSSVNCTAGCA [24-13-00-N001, bicyclic peptide ligand, TBMB scaffold, from CCR4 cell-based selection]
Raw Data: 190843
//
SEQUENCE ENTRY: ACRAVHSLRCLTTCA [24-17-00-N001, bicyclic peptide ligand, TATA scaffold, from CCR4 cell-based selection]
Raw Data: 240952

1. ACQLTCLPPPRQPGCA [24-15-00-N001, bicyclic peptide ligand, TATA scaffold, from CCR4 cell-based selection]
2. ACLNGCRNTNSQCA [24-11-00-N001, bicyclic peptide ligand, TATA scaffold, from CCR4 cell-based selection]
Name the one with the greater Raw Data value, either 1 or 2 as given. Pick one; state its label.
1

Where do these numbers come from? They come from patent US11946041B2.
